TARGET: SH2 domain of Stat3 (Homo sapiens, UniProt P40763)
Sequence (P40763 whole entry, the tested form may be a part): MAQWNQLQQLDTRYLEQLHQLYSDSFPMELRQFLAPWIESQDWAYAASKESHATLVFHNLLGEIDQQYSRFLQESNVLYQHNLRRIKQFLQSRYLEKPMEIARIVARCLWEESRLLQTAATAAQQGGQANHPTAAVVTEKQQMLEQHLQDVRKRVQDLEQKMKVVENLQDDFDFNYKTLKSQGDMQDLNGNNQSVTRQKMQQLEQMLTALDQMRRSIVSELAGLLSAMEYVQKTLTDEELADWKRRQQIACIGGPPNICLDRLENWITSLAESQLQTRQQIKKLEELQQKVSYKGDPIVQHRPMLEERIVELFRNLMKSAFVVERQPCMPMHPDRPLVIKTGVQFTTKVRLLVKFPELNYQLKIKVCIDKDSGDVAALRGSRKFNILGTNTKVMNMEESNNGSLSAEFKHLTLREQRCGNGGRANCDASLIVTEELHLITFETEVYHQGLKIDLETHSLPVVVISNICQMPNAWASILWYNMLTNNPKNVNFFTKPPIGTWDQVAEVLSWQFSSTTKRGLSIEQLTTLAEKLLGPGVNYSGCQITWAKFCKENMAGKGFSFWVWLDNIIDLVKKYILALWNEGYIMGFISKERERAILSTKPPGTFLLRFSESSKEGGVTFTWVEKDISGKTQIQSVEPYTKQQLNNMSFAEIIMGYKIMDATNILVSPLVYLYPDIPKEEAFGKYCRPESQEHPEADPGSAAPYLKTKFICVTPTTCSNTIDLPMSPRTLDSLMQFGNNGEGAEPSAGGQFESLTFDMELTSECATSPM
ASSAY_NAME: fluorescence polarization
Format: binding
EXPERIMENTAL_ENDPOINT: IC50 (µM)
Give the quantity in µM, number only.

What value of IC50 on SH2 domain of Stat3 (Homo sapiens, UniProt P40763) does CC(C)C[C@H](NC(=O)/C=C/c1ccc(OP(=O)(O)O)cc1)C(=O)N1CCC[C@H]1C(=O)N[C@@H](COC(N)=O)[C@H](C)OCc1ccccc1 [Peptide 37] have? 6.9

Reference source for all entries: paper PMC2859832
